# Assayed target: RARβ (Homo sapiens, UniProt P10826)
# Sequence (P10826 1-455): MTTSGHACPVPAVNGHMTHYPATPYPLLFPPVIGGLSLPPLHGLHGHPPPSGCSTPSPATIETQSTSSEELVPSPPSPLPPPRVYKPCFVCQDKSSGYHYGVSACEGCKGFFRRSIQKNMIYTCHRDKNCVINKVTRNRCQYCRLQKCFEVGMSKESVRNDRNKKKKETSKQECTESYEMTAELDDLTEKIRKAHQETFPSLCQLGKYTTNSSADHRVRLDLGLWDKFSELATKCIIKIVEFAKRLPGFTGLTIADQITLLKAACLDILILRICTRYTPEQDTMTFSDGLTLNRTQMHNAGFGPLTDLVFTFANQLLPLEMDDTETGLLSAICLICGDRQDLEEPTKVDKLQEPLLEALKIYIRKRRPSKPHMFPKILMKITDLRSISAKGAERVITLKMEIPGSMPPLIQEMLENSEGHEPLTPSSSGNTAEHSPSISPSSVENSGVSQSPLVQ
Observable: pKi
Scale: negative log10 of molar concentration, which is what pKi denotes.

[
  {
    "Molecule": "CCOc1cc2c(cc1\\C(=C/C=C/C(C)=C/C(=O)O)CC)C(C(C)(C)C)=CCC2(C)C [Compound A-18]",
    "pKi": 6.86
  },
  {
    "Molecule": "CC(/C=C/C(F)=C(/C)c1cc2c(cc1OCC1CC1)C(C)(C)CC=C2C(C)C)=C\\C(=O)O [Compound A-81]",
    "pKi": 6.03
  },
  {
    "Molecule": "CCOc1cc2c(cc1\\C(C)=C(F)/C=C/C(C)=C/C(=O)O)C=CCC2(C)C [Compound A-76]",
    "pKi": 5.59
  }
]

// switching to the query molecule
If you can, please state the reported pKi value of CCOc1cc2c(cc1\C(C)=C/C=C/C(C)=C/C(=O)O)C(CC)=CC(C)(C)O2 [Compound 45] . 6.71

----------
# Assayed target: RXRα (Homo sapiens, UniProt P19793)
# Construct: expressed in transfected cells
# Sequence (P19793 whole entry): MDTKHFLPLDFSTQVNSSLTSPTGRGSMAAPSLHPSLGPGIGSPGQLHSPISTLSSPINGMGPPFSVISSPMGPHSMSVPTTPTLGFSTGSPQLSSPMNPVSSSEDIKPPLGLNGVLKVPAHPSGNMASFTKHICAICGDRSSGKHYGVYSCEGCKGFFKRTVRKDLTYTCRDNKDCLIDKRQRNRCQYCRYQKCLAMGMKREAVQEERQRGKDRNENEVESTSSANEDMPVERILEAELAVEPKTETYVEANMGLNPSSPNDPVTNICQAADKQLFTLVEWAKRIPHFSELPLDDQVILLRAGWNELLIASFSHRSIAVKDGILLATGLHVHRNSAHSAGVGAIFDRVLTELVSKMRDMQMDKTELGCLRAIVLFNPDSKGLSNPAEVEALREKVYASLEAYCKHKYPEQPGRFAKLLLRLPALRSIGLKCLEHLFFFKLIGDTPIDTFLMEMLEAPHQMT
# Protocol details: holoreceptor transactivation assay, RXRα
# Assay type: cell-based
# Stated conditions: percentage compared to the standard compound; read-out: RXR Trans. efficacy (number in parentheses) α
Observable: Emax
I'd appreciate it if you included the unit after the number.

[
  {
    "Chemical smiles": "CCOc1c(\\C(=C(F)/C=C/C(C)=C/C(=O)O)C(C)C)cc2c(c1Br)C(C)(C)CC=C2C(C)C",
    "Emax": "24%"
  },
  {
    "Chemical smiles": "CCOc1cc2c(cc1\\C(C)=C/C=C/C(C)=C/C(=O)O)C(CC)=CC(C)(C)O2",
    "Emax": "5%"
  },
  {
    "Chemical smiles": "CCOc1cc2c(cc1\\C(=C/C=C/C(C)=C/C(=O)O)CC)C(C)=CCC2(C)C",
    "Emax": "39%"
  }
]

If you can, please state the reported Emax value of CCOc1c(\C(C)=C(F)/C=C/C(C)=C/C(=O)O)cc2c(c1Br)C(C)(C)CC=C2C(C)C . 66%

If you can, please state the reported Emax value of CCOc1c(\C(CC)=C(F)/C=C/C(C)=C/C(=O)O)cc2c(c1Cl)C(C)(C)CC=C2C(C)C . 43%

If you can, please state the reported Emax value of CCOc1c(\C(C)=C/C=C/C(C)=C/C(=O)O)cc2c(c1Cl)OC(C)(C)C=C2C(C)C . 56%

If you can, please state the reported Emax value of CCOc1cc2c(cc1\C(C)=C(F)/C=C/C(C)=C/C(=O)O)C(C(C)(C)C)=CCC2(C)C . 43%

----------
// values below are pKi; system is RARβ (Homo sapiens, UniProt P10826)
Scale: negative log10 of molar concentration, which is what pKi denotes.

Below are worked cases with known answers.
[
  {
    "Compound": "CCOc1cc2c(cc1\\C(CC)=C(F)/C=C/C(C)=C/C(=O)O)C(C(C)(C)C)=CCC2(C)C [Compound A-83]",
    "Observable": "pKi",
    "Reported measurement": 6.58
  },
  {
    "Compound": "CCOc1c(\\C(C)=C(F)/C=C/C(C)=C/C(=O)O)cc2c(c1Cl)OC(C)(C)C=C2C(C)C [Compound 172]",
    "Observable": "pKi",
    "Reported measurement": 6.35
  },
  {
    "Compound": "CCOc1cc2c(cc1\\C(C)=C(F)/C=C/C(C)=C/C(=O)O)C(C)=CCC2(C)C",
    "Observable": "pKi",
    "Reported measurement": 6.44
  }
]

// switching to the query compound
# value lookup — system RARβ (Homo sapiens, UniProt P10826), readout pKi, item CCC1=CC(C)(C)Oc2cc(OC)c(\C(C)=C(F)/C=C/C(C)=C/C(=O)O)cc21 [Compound 120] 5.09

----------
# Assayed target: RARβ (Homo sapiens)
# Sequence (P10826 183-417 limits assumed): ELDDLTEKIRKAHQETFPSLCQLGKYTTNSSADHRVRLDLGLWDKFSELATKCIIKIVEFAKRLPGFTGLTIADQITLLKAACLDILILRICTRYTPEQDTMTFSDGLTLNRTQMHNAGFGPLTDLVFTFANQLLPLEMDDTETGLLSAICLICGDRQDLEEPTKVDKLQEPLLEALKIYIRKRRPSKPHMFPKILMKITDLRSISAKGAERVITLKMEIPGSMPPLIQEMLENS
# Protocol details: chimeric receptor transactivation assay, RARβ
# Assay type: cell-based
# Stated conditions: percentage compared to the standard compound; read-out: RAR Trans. efficacy (number in parentheses) β
So basically: Emax at 30% or higher? That is met. Lower than 30%? That is not met.

[
  {
    "Compound": "CCOc1cc2c(cc1\\C(C)=C(F)/C=C/C(C)=C/C(=O)O)C(C(C)C)=CCC2(C)C",
    "Category": "met"
  }
]

Test whether the compound CCC1=CC(C)(C)Oc2cc(OC)c(\C(C)=C/C=C/C(C)=C/C(=O)O)cc21 records Emax of 30% or higher. met

Test whether the compound COc1c(\C(C)=C/C=C/C(C)=C/C(=O)O)cc2c(c1Cl)OC(C)(C)C=C2C(C)C records Emax of 30% or higher. not met

Test whether the compound CCOc1cc2c(cc1\C(=C/C=C/C(C)=C/C(=O)O)CC)C(C(C)(C)C)=CCC2(C)C records Emax of 30% or higher. not met

Test whether the compound CCOc1cc2c(cc1\C(C)=C(F)/C=C/C(C)=C/C(=O)O)C(C(C)(C)C)=CCC2(C)C records Emax of 30% or higher. not met

Test whether the compound CCOc1cc2c(cc1\C(CC)=C(F)/C=C/C(C)=C/C(=O)O)C(CC)=CCC2(C)C records Emax of 30% or higher. met

Test whether the compound CCOc1c(\C(CC)=C(F)/C=C/C(C)=C/C(=O)O)cc2c(c1Cl)C(C)(C)CC=C2C(C)C records Emax of 30% or higher. not met

Test whether the compound CC/C(=C(F)/C=C/C(C)=C/C(=O)O)c1cc2c(cc1OC)OC(C)(C)C=C2C(C)(C)C records Emax of 30% or higher. not met

Test whether the compound CC/C(=C(F)/C=C/C(C)=C/C(=O)O)c1cc2c(cc1OC)OC(C)(C)C=C2C(C)C records Emax of 30% or higher. met

Test whether the compound CCCOc1cc2c(cc1\C(C)=C(F)/C=C/C(C)=C/C(=O)O)C(C(C)(C)C)=CCC2(C)C records Emax of 30% or higher. not met

Test whether the compound CCOc1c(\C(CC)=C(F)/C=C/C(C)=C/C(=O)O)cc2c(c1Br)C(C)(C)CC=C2C(C)CC (centres unmarked) records Emax of 30% or higher. not met

----------
# Assayed target: UniProt P28704
# Protocol details: holoreceptor transactivation assay, RXRβ
# Type: cell-based
# Stated conditions: percentage compared to the standard compound
Items are presented alongside their recorded RXR Trans. efficacy (number in parentheses) β.
Express the result in % but write the number alone.

Below are worked cases with known answers.
[
  {
    "Chemical smiles": "CCOc1c(\\C(CC)=C(F)/C=C/C(C)=C/C(=O)O)cc2c(c1Br)C(C)(C)CC=C2C(C)C",
    "Assayed target": "UniProt P28704",
    "Unit symbol": "%",
    "Reported measurement": 59
  },
  {
    "Chemical smiles": "CCOc1c(\\C(C)=C(F)/C=C/C(C)=C/C(=O)O)cc2c(c1Br)C(C)(C)CC=C2C(C)C",
    "Assayed target": "UniProt P28704",
    "Unit symbol": "%",
    "Reported measurement": 68
  },
  {
    "Chemical smiles": "COc1cc2c(cc1\\C(C)=C(F)/C=C/C(C)=C/C(=O)O)C(C(C)(C)C)=CC(C)(C)O2",
    "Assayed target": "UniProt P28704",
    "Unit symbol": "%",
    "Reported measurement": 61
  }
]

// switching to the query compound
If you can, please state the reported RXR Trans. efficacy (number in parentheses) β value of CCOc1cc2c(cc1\C(CC)=C(F)/C=C/C(C)=C/C(=O)O)C(CC)=CCC2(C)C . 23
